test system: HCC-2998 colon; assay: NCI-60 one-dose screen, 48 h (100 = growth as untreated, 0 = no growth, -100 = all killed); conditions: 10 µM
This is part of a sample that, as a whole, favours compounds with a hit. Of some 83,000 tested, about 20% had one in any assay.
So I've got a bunch of compounds here, and I need their growth values.
One number for each entry, in %.

Please review the entries below; each comes with its answer.
COMPOUND	ASSAY_METRIC	REPORTED_MEASUREMENT
C#Cc1cccc(Nc2ncnc3cc4c(cc23)OCCOCCOCCO4)c1	growth	97.9
C/C=C/C=N/NC(=S)Nc1ccccc1	growth	104
CCC1(/C=N/NC(N)=S)NC(=O)NC1=O (stereo not given)	growth	115
Brc1ccc([I+]c2ccc(Br)cc2)cc1	growth	25
CNC(=O)c1cc(Oc2ccc3nc(NC(=O)Nc4ccc(Cl)c(C(F)(F)F)c4)sc3c2)ccn1	growth	46.6
C#Cc1cccc(Nc2ncnc3cc(OCCOC)c(OCCOC)cc23)c1	growth	94.8
CCNC(=O)Nc1nc2ccc(Oc3ccnc(C(=O)NC)c3)cc2s1	growth	71.9
COc1cc2nccc(Oc3ccc(NC(=O)Nc4cc(C)on4)c(Cl)c3)c2cc1OC	growth	56.6

Here are 5 compounds. What values of growth were reported for them?
1. NC1(c2ccc(-c3nc4ccn5c(=O)[nH]nc5c4cc3-c3ccccc3)cc2)CCC1
2. Cc1ccc(C(=O)Nc2ccc(CN3CCN(C)CC3)c(C(F)(F)F)c2)cc1C#Cc1cnc2cccnn12
3. O=c1[nH]ccc2c(S(=O)(=O)N3CCCNCC3)cccc12
4. CN1CCC(COc2cnc(-c3cccc(Cn4nc(-c5cccc(C#N)c5)ccc4=O)c3)nc2)CC1
5. COc1ccc(/C(C)=C(\c2ccc(Cl)cc2)c2ccc(OCCN3CCCCCC3)cc2)cc1

Reply |
1: 33.6; 2: -91.8; 3: 92.2; 4: 80.7; 5: 82.1

Here are 5 compounds. What values of growth were reported for them?
1. O=C1CC(c2ccc(Cl)cc2)c2ncn(-c3cccc(Cl)c3)c2N1 (stereo not given)
2. N#Cc1c(-c2ccc(C(F)(F)F)cc2)cc(NCC2CCS(=O)(=O)CC2)n2c1nc1ccccc12
3. C[C@@H](Oc1cc(-c2cnn(C3CCNCC3)c2)cnc1N)c1c(Cl)ccc(F)c1Cl
4. CCCCCCCC12Cc3ccccc3C1=Nc1c(c3ccccc3n1C)C2=O (stereo not given)
5. Cc1cc2c(F)c(Oc3ncnn4cc(OC[C@@H](C)OC(=O)[C@H](C)N)c(C)c34)ccc2[nH]1

Reply |
1: 77.4; 2: 91.9; 3: -73.2; 4: 96.3; 5: 37.5
